Test system: MS2 coat protein
Test: apparent KD of MS2 coat protein; designed switch direction (-1 OFF switch, 1 ON switch): -1; higher = weaker reporter binding
Conditions: input ligand: microRNA oligo, concentration not stated
# maps each entry to its apparent KD of MS2 coat protein
Output spec: scalar in nM, unitless text.

Worked examples, 3 sequences total:
ENTRY_SEQUENCE	QUANTITY_UNIT	RECORDED_MEASUREMENT
GCAGCAACUCUAAUCAACCAAACAUGAGGAUCACCCAUGUCUCAGGAUAUGGUCUGGAUUACAGGCCAGAAGGGAGAAAGCUGC [Eli exng3 - 044] (Eterna round: R96, puzzle: Exclusion NG 3)	nM	9.77
AGAUAGUGGUGAGGAUAUCAGAAUAGAAAGAAAUGAGAAGGCGCACAUGAGGAUCACCCAUGUGAGGUCUUGAGACUACAUGGU [Prohibition 39 - Jieux - Exclusion NG 1] (Eterna round: R96, puzzle: Exclusion NG 1)	nM	15.7
GGUGGACAUGAGGAUCACCCAUGUGAGGAUAUCGGCUGGCUAGCGGCGGACGGCUUCUCGAGAAGGCGCAUUGU [Exclusion 1 V83] (Eterna round: R96, puzzle: Exclusion 1)	nM	42.2

Query :: Answer with the recorded apparent KD of MS2 coat protein for the sequence listed here: ACGAUGACCGAAAAGUGUCAACUGACAUGAGGAUCACCCAUGUAGGAUAUGGCUACGAAAAGUAGUCAGAAGGACAAGUCAUCA [Omei Exc(NG) 3 Av5] (Eterna round: R96, puzzle: Exclusion NG 3)
Result :: 8.52

Query :: Answer with the recorded apparent KD of MS2 coat protein for the sequence listed here: GCUGCAAAUGUAGGAUAUCUGCACGUGUAGUGCAGAGAAGGACAUGAGGAUCACCCAUGUAGAUCAGCAGCAAUUAAUUUAAUU [ENG1/5-A3] (Eterna round: R96, puzzle: Exclusion NG 1)
Result :: 34.5

====

# maps each entry to its apparent KD of MS2 coat protein
System: MS2 coat protein
Test: apparent KD of MS2 coat protein; higher = weaker reporter binding
Conditions: Eterna round: R107; input ligand: arginine 13.2 mM
Output spec: scalar in nM, unitless text.

Worked examples, 5 sequences total:
ENTRY_SEQUENCE	apparent KD of MS2 coat protein (nM)
GGAUAGGACACGGCCGCCACUAUCUAGGAUACUAGCAACAUUUGGGUAUAUGAGGAUCACCCAUAUAGGACCGGGUGUCCUAUCG	138
AGUUGACGAAAGUCAGCAACAUGAUCCGAAGGAGCGGGCGAAAGCCCAGGUAGGUCGCGGACAUGAGGAUCACCCAUGUCUCCUU [MAT - Exclusion Arginine A - Mod of Eli - D12]	37.8
UGUAACAUGAGGAUCACCCAUGUGAGUGAUACCAGAUAAGUAGUAGUCCCUUGGCAGCAUAUUGGGCGAGUGUAUAGUCUAUACG [Same State - Theophylline A (Freestyle 8)]	111
UUCGUUUACGGAAGGAGCGACGGACAUCGGUGAACGACGCACAUGAGGAUCACCCAUGUACGUCAGGUAGGUCGCCGUUAAGAGU [Somama]	23
AACAUCUGGCGUGAUACCAGCCACAUGAGGAUCACCCAUGUCAACACUCGCAAUUGCGACGGCCCUUGGCAGCACGCAUCCUCAG [Sorioncege]	49

Query :: Answer with the recorded apparent KD of MS2 coat protein for the sequence listed here: UGACAUUGCUCAGAUACCAGACAUGAGGAUCACCCAUGUACCAAGAGUACAAAUUAAAAUGUCCCUUGGCAGCUGAGCAAUGUCU [TheoBX 7 #MS2Left #Theo2]
Result :: 25.4
